# Test system: guinea pig platelets (platelet-rich plasma)
# assay-protocol: Inhibition against platelet aggregation ability after oral administration in guinea pig
# Assay type: in vivo
# assay-context: Cavia porcellus, 1 h, oral administration: 37 μmol/kg, blood collected after an hour, ADP 5 μM, read-out: Aggregation inhibiting rate (%)
Where a name gives a salt, the structure may show the parent alone.
endpoint-label: inhibition at 37 µmol/kg

1) CCOC(=O)CC1COc2cc(NC(=O)c3ccc(C(=N)N)cc3)ccc2C1 (centres unmarked) [Reference Example 7, hydrochloride, reference compound]
24%
2) C#CCNC(=N)c1ccc(C(=O)Nc2ccc3c(c2)CC(CC(=O)OCC)CO3)cc1 (single isomer, unassigned) [Example 49, hydrochloride]
> 90%
3) CCOC(=O)CC1CCc2ccc(NC(=O)c3ccc(C(=N)NCc4ccccn4)cc3)cc2C1 (centres unmarked)
> 90%
4) C#CCNC(=N)c1ccc(C(=O)Nc2ccc3c(c2)CC(CC(=O)OCC)CO3)cc1 (centres unmarked) [Example 26, hydrochloride]
> 90%
5) CCOC(=O)CC1COc2ccc(NC(=O)c3ccc(C(=N)N4CCOCC4)cc3)cc2C1 (single isomer, unassigned) [Example 51, hydrochloride]
> 90%

From: patent US5719145A
